Test system: RXF 393
Assay: NCI tumour cell line growth inhibition, 48 h
Calls of active or inactive are those of the source. Cut-off read from the data, not from the text of the source: active = GI50 up to about 1.1 µM and inactive = higher.
READOUT NAME: GI50

Ask: Param readout= GI50; system= RXF 393; entry= O=[N+]([O-])c1ccc(C(=S)Nc2ccccc2)o1 ; returns value.
Reply: 4.14 µM (inactive)

Ask: Param readout= GI50; system= RXF 393; entry= Clc1ccc(/N=C2\c3ccccc3CN2c2ccc(Cl)cc2)cc1 ; returns value.
Reply: 29.8 µM (inactive)

Ask: Param readout= GI50; system= RXF 393; entry= CCOC(=O)CCC(NC(=O)c1ccc(Nc2nc3ccccc3nc2C(=O)OCC)s1)C(=O)OCC (stereo unspecified) ; returns value.
Reply: 66.1 µM (inactive)

Ask: Param readout= GI50; system= RXF 393; entry= COC(=O)C(/C(=N/N)C(=O)Nc1cccc(O)c1)c1nc2ccccc2nc1O (stereo unspecified) ; returns value.
Reply: > 100 µM (inactive)

Ask: Param readout= GI50; system= RXF 393; entry= c1cc(-c2ccc(-c3ccc(C4=NCCCN4)cc3)o2)ccc1C1=NCCCN1 ; returns value.
Reply: > 100 µM (inactive)

Ask: Param readout= GI50; system= RXF 393; entry= N#CC(C#N)=C1/C(=C/C=C/C=C/C=C/c2ccc(N3CCCCC3)s2)S(=O)(=O)c2ccccc21 ; returns value.
Reply: > 100 µM (inactive)
